meta.source: paper PMC3914206

Target: panel of 442 kinases (Homo sapiens, UniProt P08581, M1250T)
Construct: purchased KINOMEscan
Sequence (P08581 25-1390 M1250T): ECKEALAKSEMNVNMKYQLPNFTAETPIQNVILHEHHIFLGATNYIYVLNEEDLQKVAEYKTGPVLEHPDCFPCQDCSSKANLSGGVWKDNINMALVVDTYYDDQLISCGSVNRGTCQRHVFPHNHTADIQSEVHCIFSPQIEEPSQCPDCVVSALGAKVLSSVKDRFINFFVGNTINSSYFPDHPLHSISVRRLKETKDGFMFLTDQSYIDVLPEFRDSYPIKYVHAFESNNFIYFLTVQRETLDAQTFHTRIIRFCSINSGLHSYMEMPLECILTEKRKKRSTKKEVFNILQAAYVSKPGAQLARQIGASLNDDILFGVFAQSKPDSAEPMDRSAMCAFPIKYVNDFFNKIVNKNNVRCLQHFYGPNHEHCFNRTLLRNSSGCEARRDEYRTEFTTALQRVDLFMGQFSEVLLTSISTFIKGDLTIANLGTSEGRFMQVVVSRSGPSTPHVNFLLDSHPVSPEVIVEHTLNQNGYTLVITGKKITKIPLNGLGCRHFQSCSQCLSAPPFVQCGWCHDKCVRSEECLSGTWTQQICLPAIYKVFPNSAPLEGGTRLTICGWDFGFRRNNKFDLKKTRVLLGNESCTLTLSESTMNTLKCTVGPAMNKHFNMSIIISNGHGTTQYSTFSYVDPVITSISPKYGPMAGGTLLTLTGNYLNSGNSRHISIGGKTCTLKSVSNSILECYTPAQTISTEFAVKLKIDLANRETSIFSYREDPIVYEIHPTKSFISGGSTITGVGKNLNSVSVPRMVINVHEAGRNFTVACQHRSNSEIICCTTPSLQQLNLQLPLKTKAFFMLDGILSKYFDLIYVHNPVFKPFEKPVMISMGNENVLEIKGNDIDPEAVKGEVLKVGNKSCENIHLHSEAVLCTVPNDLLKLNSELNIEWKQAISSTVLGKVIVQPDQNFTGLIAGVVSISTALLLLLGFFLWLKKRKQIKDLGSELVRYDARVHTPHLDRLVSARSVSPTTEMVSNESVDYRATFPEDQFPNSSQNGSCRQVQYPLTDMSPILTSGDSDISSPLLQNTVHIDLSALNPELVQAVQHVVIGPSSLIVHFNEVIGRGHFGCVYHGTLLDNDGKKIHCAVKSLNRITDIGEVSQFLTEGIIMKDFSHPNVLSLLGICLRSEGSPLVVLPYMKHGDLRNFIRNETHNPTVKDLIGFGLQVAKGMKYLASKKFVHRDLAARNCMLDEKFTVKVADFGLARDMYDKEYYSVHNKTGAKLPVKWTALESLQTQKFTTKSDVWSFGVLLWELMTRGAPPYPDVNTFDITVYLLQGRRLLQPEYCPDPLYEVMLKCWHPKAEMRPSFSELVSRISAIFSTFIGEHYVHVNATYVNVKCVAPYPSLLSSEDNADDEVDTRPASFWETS
Assay type: binding
Settings: Compound Concentration 10 µM
observable: KINOMEscan: MET(M1250T)
Provide a numeric answer; units are not to be included.

Example results:
> print(dat)
                    compoundstructurestring                         measurementtarget  reportedmeasurement
1  COc1cc(C(=O)N2CCC(N3CCN(C)CC3)CC2)ccc1Nc1ncc2c(n1)N(C1CCCC1)c1ccccc1C(=O)N2C  panel of 442 kinases (Homo sapiens, UniProt P08581, M1250T)                   95
2  COc1cc(C(=O)N2CCC(N3CCN(C)CC3)CC2)ccc1Nc1ncc2c(n1)N1CCc3cccc(c31)C(=O)N2C  panel of 442 kinases (Homo sapiens, UniProt P08581, M1250T)                   88
3  COc1cc(C(=O)N2CCC(N3CCN(C)CC3)CC2)ccc1Nc1ncc2c(n1)N(C)c1ccccc1C(=O)N2C  panel of 442 kinases (Homo sapiens, UniProt P08581, M1250T)                   96

**Q:** Param item = CCOc1cc(C(=O)N2CCC(N3CCN(C)CC3)CC2)ccc1Nc1ncc2c(n1)N(C1CCCC1)c1ccccc1C(=O)N2C ; retrieve measured KINOMEscan: MET(M1250T).
**A:** 100

----------
Parameter: % Ctrl, YANK3. Scope: all listed entries.
Target: panel of 442 kinases (Homo sapiens, UniProt Q86UX6)
Construct: purchased KINOMEscan
Sequence (Q86UX6 whole entry): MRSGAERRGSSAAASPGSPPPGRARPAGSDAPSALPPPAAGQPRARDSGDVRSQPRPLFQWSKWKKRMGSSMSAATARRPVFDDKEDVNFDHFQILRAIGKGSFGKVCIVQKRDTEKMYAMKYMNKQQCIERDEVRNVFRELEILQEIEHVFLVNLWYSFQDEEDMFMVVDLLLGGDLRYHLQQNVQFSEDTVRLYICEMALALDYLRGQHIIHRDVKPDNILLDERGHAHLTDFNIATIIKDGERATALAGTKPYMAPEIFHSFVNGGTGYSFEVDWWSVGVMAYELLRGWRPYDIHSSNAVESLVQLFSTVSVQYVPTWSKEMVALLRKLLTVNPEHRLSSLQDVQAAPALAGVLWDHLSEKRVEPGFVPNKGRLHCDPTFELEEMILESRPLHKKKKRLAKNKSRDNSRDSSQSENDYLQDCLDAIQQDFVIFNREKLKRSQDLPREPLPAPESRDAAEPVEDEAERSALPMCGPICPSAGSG
Type: binding
Conditions: kinase YANK3; compound concentration 10 µM
Give the number; % Ctrl is assumed, so skip it.

Example results:
> print(dat)
                    compoundstructurestring  reportedmeasurement
1  COc1cc(C(=O)N2CCC(N3CCN(C)CC3)CC2)ccc1Nc1ncc2c(n1)N(C1CCCC1)c1ccccc1C(=O)N2C                  100
2  CCOc1cc(C(=O)N2CCC(N3CCN(C)CC3)CC2)ccc1Nc1ncc2c(n1)N(C1CCCC1)c1ccccc1C(=O)N2C                  100
3  COc1cc(C(=O)N2CCC(N3CCN(C)CC3)CC2)ccc1Nc1ncc2c(n1)N(C)c1ccccc1C(=O)N2C                  100

Proceeding to the next compound to report its % Ctrl, YANK3.
**Q:** Param item = COc1cc(C(=O)N2CCC(N3CCN(C)CC3)CC2)ccc1Nc1ncc2c(n1)N1CCc3cccc(c31)C(=O)N2C ; retrieve measured % Ctrl, YANK3.
**A:** 100

----------
Parameter: KINOMEscan: IRAK1. Scope: all listed entries.
Biological target: panel of 442 kinases (Homo sapiens, UniProt P51617)
Construct: purchased KINOMEscan
Sequence (P51617 whole entry): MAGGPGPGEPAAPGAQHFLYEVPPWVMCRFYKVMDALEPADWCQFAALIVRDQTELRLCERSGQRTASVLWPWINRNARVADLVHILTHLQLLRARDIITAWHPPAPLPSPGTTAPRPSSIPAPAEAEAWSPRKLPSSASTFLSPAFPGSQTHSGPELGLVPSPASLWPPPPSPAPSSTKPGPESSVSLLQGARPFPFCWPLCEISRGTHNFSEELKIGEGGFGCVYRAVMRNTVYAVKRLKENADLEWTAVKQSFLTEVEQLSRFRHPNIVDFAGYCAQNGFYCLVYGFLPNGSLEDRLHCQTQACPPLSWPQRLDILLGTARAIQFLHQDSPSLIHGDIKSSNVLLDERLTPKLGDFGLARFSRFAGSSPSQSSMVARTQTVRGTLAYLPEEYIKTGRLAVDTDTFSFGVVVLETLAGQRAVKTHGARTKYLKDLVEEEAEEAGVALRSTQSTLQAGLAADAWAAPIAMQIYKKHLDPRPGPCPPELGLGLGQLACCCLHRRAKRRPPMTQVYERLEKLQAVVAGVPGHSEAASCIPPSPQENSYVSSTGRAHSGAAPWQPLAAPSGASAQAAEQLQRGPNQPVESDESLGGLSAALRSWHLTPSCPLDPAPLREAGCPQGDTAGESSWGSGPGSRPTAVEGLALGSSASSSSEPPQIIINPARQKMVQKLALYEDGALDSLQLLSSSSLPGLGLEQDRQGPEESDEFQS
Format: binding
Conditions: Compound Concentration 10 µM
Provide a numeric answer; units are not to be included.

Example results:
> print(dat)
                    compoundstructurestring  reportedmeasurement
1  COc1cc(C(=O)N2CCC(N3CCN(C)CC3)CC2)ccc1Nc1ncc2c(n1)N(C1CCCC1)c1ccccc1C(=O)N2C                   89
2  COc1cc(C(=O)N2CCC(N3CCN(C)CC3)CC2)ccc1Nc1ncc2c(n1)N1CCc3cccc(c31)C(=O)N2C                   95
3  COc1cc(C(=O)N2CCC(N3CCN(C)CC3)CC2)ccc1Nc1ncc2c(n1)N(C)c1ccccc1C(=O)N2C                  100

**Q:** Param item = CCOc1cc(C(=O)N2CCC(N3CCN(C)CC3)CC2)ccc1Nc1ncc2c(n1)N(C1CCCC1)c1ccccc1C(=O)N2C ; retrieve measured KINOMEscan: IRAK1.
**A:** 100

----------
Parameter: KINOMEscan: ABL1(F317L)-nonphosphorylated. Scope: all listed entries.
Biological target: panel of 442 kinases (Homo sapiens, UniProt P00519, F317L)
Construct: purchased KINOMEscan
Sequence (P00519 whole entry F317L): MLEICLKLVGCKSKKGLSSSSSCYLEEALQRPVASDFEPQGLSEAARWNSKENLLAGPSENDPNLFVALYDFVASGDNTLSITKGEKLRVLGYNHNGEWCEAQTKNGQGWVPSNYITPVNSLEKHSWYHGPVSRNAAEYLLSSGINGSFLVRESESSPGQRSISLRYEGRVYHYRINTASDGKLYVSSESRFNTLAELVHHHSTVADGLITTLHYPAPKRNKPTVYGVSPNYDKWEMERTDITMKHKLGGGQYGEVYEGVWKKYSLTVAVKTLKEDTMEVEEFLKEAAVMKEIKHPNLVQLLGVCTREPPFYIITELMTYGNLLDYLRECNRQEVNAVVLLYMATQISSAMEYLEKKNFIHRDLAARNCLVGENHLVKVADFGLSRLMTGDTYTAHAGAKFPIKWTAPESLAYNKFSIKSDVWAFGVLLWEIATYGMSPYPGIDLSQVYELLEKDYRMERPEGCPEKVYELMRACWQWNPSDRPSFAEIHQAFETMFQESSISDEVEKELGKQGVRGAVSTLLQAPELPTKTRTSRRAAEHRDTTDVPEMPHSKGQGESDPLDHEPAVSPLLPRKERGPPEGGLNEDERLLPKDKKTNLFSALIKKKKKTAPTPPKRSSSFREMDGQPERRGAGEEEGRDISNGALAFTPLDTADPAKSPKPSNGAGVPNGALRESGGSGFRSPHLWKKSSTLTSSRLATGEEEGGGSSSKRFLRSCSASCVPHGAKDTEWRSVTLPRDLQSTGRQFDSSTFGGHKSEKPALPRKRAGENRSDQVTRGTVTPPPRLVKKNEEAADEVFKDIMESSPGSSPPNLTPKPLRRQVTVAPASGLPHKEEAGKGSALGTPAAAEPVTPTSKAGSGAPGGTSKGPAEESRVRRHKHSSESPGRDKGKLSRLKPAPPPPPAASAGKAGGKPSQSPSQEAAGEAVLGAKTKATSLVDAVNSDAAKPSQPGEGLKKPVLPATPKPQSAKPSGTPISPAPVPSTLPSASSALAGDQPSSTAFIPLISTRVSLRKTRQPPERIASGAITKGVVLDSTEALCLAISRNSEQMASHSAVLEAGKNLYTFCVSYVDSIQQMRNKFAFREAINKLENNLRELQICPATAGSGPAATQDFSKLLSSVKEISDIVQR
Type: binding
Conditions: Compound Concentration 10 µM
Provide a numeric answer; units are not to be included.

Example results:
> print(dat)
                                   compound  reportedmeasurement
1  CCOc1cc(C(=O)N2CCC(N3CCN(C)CC3)CC2)ccc1Nc1ncc2c(n1)N(C1CCCC1)c1ccccc1C(=O)N2C [Compound 26]                   71
2  COc1cc(C(=O)N2CCC(N3CCN(C)CC3)CC2)ccc1Nc1ncc2c(n1)N(C1CCCC1)c1ccccc1C(=O)N2C [Compound 25]                   15
3  COc1cc(C(=O)N2CCC(N3CCN(C)CC3)CC2)ccc1Nc1ncc2c(n1)N(C)c1ccccc1C(=O)N2C [15 (LRRK2-IN-1)]                   14

**Q:** Param item = COc1cc(C(=O)N2CCC(N3CCN(C)CC3)CC2)ccc1Nc1ncc2c(n1)N1CCc3cccc(c31)C(=O)N2C [Compound 24] ; retrieve measured KINOMEscan: ABL1(F317L)-nonphosphorylated.
**A:** 23

----------
Target: panel of 442 kinases (Homo sapiens)
Construct: purchased KINOMEscan
Sequence (Q92630 1-601): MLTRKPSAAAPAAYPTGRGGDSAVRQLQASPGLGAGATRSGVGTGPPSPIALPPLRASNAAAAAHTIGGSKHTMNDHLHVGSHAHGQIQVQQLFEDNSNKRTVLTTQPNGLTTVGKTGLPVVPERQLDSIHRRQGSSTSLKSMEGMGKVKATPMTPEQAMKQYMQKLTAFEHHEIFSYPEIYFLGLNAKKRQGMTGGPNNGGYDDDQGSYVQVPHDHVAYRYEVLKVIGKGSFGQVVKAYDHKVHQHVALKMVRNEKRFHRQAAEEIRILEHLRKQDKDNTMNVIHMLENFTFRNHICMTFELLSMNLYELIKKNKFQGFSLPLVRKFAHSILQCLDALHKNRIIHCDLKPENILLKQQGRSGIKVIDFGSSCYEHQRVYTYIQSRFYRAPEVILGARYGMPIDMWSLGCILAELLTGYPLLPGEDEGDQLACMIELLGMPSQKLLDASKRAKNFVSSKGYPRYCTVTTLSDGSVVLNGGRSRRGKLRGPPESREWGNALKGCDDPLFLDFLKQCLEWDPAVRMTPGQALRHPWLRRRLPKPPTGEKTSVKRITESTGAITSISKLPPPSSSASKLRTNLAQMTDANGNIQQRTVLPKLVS
Format: binding
Conditions: Compound Concentration 10 µM
observable: KINOMEscan: DYRK2
Provide a numeric answer; units are not to be included.

Example results:
> print(dat)
                    compoundstructurestring         observable  reportedmeasurement
1  COc1cc(C(=O)N2CCC(N3CCN(C)CC3)CC2)ccc1Nc1ncc2c(n1)N1CCc3cccc(c31)C(=O)N2C  KINOMEscan: DYRK2                   82
2  COc1cc(C(=O)N2CCC(N3CCN(C)CC3)CC2)ccc1Nc1ncc2c(n1)N(C)c1ccccc1C(=O)N2C  KINOMEscan: DYRK2                   76
3  CCOc1cc(C(=O)N2CCC(N3CCN(C)CC3)CC2)ccc1Nc1ncc2c(n1)N(C1CCCC1)c1ccccc1C(=O)N2C  KINOMEscan: DYRK2                  100

Proceeding to the next compound to report its KINOMEscan: DYRK2.
**Q:** Param item = COc1cc(C(=O)N2CCC(N3CCN(C)CC3)CC2)ccc1Nc1ncc2c(n1)N(C1CCCC1)c1ccccc1C(=O)N2C ; retrieve measured KINOMEscan: DYRK2.
**A:** 100

----------
Molecular target: panel of 442 kinases (Homo sapiens)
Construct: purchased KINOMEscan
Assay type: binding
Conditions: Compound Concentration 10 µM
observable: KINOMEscan: ERK2
Provide a numeric answer; units are not to be included.

Example results:
> print(dat)
                    compoundstructurestring        observable  reportedmeasurement
1  COc1cc(C(=O)N2CCC(N3CCN(C)CC3)CC2)ccc1Nc1ncc2c(n1)N1CCc3cccc(c31)C(=O)N2C  KINOMEscan: ERK2                   88
2  CCOc1cc(C(=O)N2CCC(N3CCN(C)CC3)CC2)ccc1Nc1ncc2c(n1)N(C1CCCC1)c1ccccc1C(=O)N2C  KINOMEscan: ERK2                  100
3  COc1cc(C(=O)N2CCC(N3CCN(C)CC3)CC2)ccc1Nc1ncc2c(n1)N(C1CCCC1)c1ccccc1C(=O)N2C  KINOMEscan: ERK2                   98

**Q:** Field: KINOMEscan: ERK2 (panel of 442 kinases (Homo sapiens)). Entry: COc1cc(C(=O)N2CCC(N3CCN(C)CC3)CC2)ccc1Nc1ncc2c(n1)N(C)c1ccccc1C(=O)N2C
**A:** 85
